compounds and their reported TGI
System: NCI/ADR-RES ovarian
Experiment: NCI tumour cell line growth inhibition, 48 h
READOUT: TGI

INSERT INTO results (compound, readout, value_observed) VALUES
  ('CC(=O)c1cccc(NC(=O)/C(=N\NC(=S)NN)C2C(=O)Nc3ccccc3S2=O)c1 (stereo unspecified)', 'TGI', '> 100 µM'),
  ('COC(=O)/C=C/N1CC1', 'TGI', '> 10 µM'),
  ('Cc1ccc(C)c(C(=N)c2ccccc2Cc2ccccc2)c1', 'TGI', '> 100 µM'),
  ('Cc1c(C=C(C#N)C#N)c(=O)n(C)c(=O)n1C', 'TGI', '> 100 µM'),
  ('O=C(Nc1ccc(N2CCNCC2)cn1)c1[nH]ncc1Nc1ncnc2sc3c(c12)CCC3', 'TGI', '> 100 µM'),
  ('COc1ccc(-c2cc(-c3ccccc3)nc(N)n2)c(O)c1', 'TGI', '> 100 µM');

* * *

System: OVCAR-4 ovarian
Test: NCI tumour cell line growth inhibition, 48 h
READOUT: TGI

INSERT INTO results (compound_string, readout, value_observed) VALUES
  ('N=c1oc2ccc(Cl)cc2cc1C(=O)NC1CCCCC1', 'TGI', '> 100 µM'),
  ('Cc1cccc2c(=O)c3c(O)cc4c(c3n(C)c12)C=CC(C)(C)O4', 'TGI', '> 100 µM'),
  ('C/C(=N\NS(=O)(=O)c1ccccc1)c1ccc[n+]([O-])n1', 'TGI', '> 100 µM');

* * *

Listed below: TGI values for each entry.
System: SR leukemia
Test: NCI tumour cell line growth inhibition, 48 h
Where a SMILES comes first, the peptide text is derived from it. [ ]: non-standard residue; d: D form. The star is where a group is joined. ξ: configuration not given here. dIva = CC[C@@](C)(N)C(=O)O; Aib = CC(C)(N)C(=O)O; ξP = O=C(O)C1CCCN1; βAla = NCCC(=O)O; X5 = OCN*
READOUT: TGI (µM)

INSERT INTO assay_data (compound, subject_of_test, limit_qualifier, value_observed) VALUES
  ('CC(C)[Si](OC1=CCC[C@H]2NC(=O)[C@@H](Cc3ccc([N+](=O)[O-])cc3)[C@@]12C)(C(C)C)C(C)C', 'SR leukemia', '=', 8.02),
  ('CCCNC(=O)Nc1ccc2c(c1)Cc1cc(N(CCCl)CCCl)ccc1-2', 'SR leukemia', '>', 100),
  ('CC[C@@](C)(NC(=O)[C@H](C)NC(=O)CCNC(=O)C(C)(C)NC(=O)[C@H](C)NC(=O)[C@@H]1CCCN1C(=O)[C@@](C)(CC)NC(=O)[C@H](Cc1ccccc1)NC(=O)C1CCCN1C(=O)C(C)(C)NC(=O)C1CCCN1C(=O)C(C)(C)NC(C)=O)C(=O)NCCC(=O)N[C@@H](CC(C)C)C(=O)NC(C)(C)C(=O)NCCC(=O)N[C@@H](CC(C)C)C(=O)NC(C)(C)C(=O)NC(C)(C)C(=O)N[C@@H](CC(C)C)C(=O)NCCC(=O)NCO (stereo partly drawn) (Ac-[Aib][ξP][Aib][ξP]F[dIva]PA[Aib][βAla]A[dIva][βAla]L[Aib][βAla]L[Aib][Aib]L[βAla]-X5)', 'SR leukemia', '=', 0.646);

Ref: PubChem BioAssay (NCI)
